Measurement notes: chemical genetic growth profiling, strain panel (AID 1159580);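 further: tested at 20 µM; growth read once vehicle control cultures reached saturation at 30 °C; 1 = growth at the plate median or of vehicle wells; lower values mean less growth of the strain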
Condition summary: S. cerevisiae deletion strains, growth OD, locus YBR023C, strain chs3, hits give low values
The campaign covered roughly 5,500 compounds. About 2,000 (36%) were called active. Not shown: some 18% with an inconclusive outcome. The list shows a part of the results.
Parameter measured: normalized growth
Hey, just send me the number, nothing else.

See these solved cases before continuing.
# Compound, normalized growth
measured = [
    ("Cn1c([N+](=O)[O-])cnc1COC(N)=O", 1.01),
    ("COc1c(O)cc(O)cc1O", 1.01),
    ("COc1c2occc2cc2ccc(=O)oc12", 0.926),
    ("Cc1cc(O)c2c(c1O)C(=O)c1c(O)cc(C)c(O)c1C2=O", 0.983),
    ("c1ccc2c(c1)[nH]c1cnccc12", 0.993),
    ("CC1(C)C[C@@H]2C(=O)CC[C@H]3O[C@]3(C)CC[C@H]21", 1.02),
]

[ask] Data request, read-out normalized growth, for CC1(C)C=Cc2c(cc3occ(-c4ccc5c(c4)OCO5)c(=O)c3c2O)O1
[reply] 0.884

[ask] Data request, read-out normalized growth, for O=C1c2ccccc2C(=O)c2c(O)c(O)cc(O)c21
[reply] 0.35

[ask] Data request, read-out normalized growth, for CC(=O)O[C@@H]1CC2C(C)(C)[C@H](O)C[C@H](O)[C@]2(C)C2CC[C@@]3(C)C(=CC(=O)O[C@H]3c3ccoc3)[C@@]21C (stereo partly drawn)
[reply] 0.991

[ask] Data request, read-out normalized growth, for CCC(=O)O[C@H]1CCC2C3CCc4cc(O)ccc4C3CC[C@@]21C (stereo partly drawn)
[reply] 0.981

[ask] Data request, read-out normalized growth, for CC(=O)OC1CCC23C(=O)OC45CCC(C6=CC(=O)OC6)C4(C)CCC2C5CCC3(O)C1 (stereo not drawn)
[reply] 0.991

[ask] Data request, read-out normalized growth, for C[N+]1(C)C2CC[C@H]1CC(OC(=O)C(O)c1ccccc1)C2 (stereo partly drawn)
[reply] 0.992

[ask] Data request, read-out normalized growth, for COc1cc(O)c(C(=O)O)c(O)c1
[reply] 0.998

[ask] Data request, read-out normalized growth, for COc1ccc(Cc2nccc3cc(OC)c(OC)cc23)cc1OC
[reply] 1.01

---

Examples of compounds with documented normalized growth follow.
Measurement notes: chemical genetic growth profiling, strain panel (AID 1159580);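 further: tested at 20 µM; growth read once vehicle control cultures reached saturation at 30 °C; 1 = growth at the plate median or of vehicle wells; lower values mean less growth of the strain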
Condition summary: S. cerevisiae deletion strains, growth OD, locus YHR087W, strain rtc3, hits give low values
Among all 5,500 compounds or so, about 2,000 (36%) were called active. Not shown: some 18% with an inconclusive outcome. Some of the results follow.
Hey, just send me the number, nothing else.

# Compound, normalized growth
records = [
    ("COc1cc(Cl)c(Cl)cc1Cl", 1.01),
]

Okay, now this compound:
[ask] Data request, read-out normalized growth, for CC(C)(C)c1ccc(C(=O)N/N=C\c2cc(Cl)cc(Cl)c2O)cc1
[reply] 0.872

---

Measurement notes: chemical genetic growth profiling, strain panel (AID 1159580);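 further: tested at 20 µM; growth read once vehicle control cultures reached saturation at 30 °C; 1 = growth at the plate median or of vehicle wells; lower values mean less growth of the strain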
Condition summary: S. cerevisiae deletion strains, growth OD, locus YJL154C, strain vps35, hits give low values
Out of some 5,500 compounds screened, about 2,000 (36%) were called active. Not shown: some 18% with an inconclusive outcome. Some of the results follow.
Examples of molecules with documented normalized growth follow.

# Molecule, Parameter measured, Assay result
data = [
    ("CC(C(=O)O)c1ccc(N2Cc3ccccc3C2=O)cc1 (configuration not stated)", "normalized growth", "0.987 (inactive)"),
    ("CC(C)=CCC/C(C)=C/COc1ccc2ccc(=O)oc2c1", "normalized growth", "0.99 (inactive)"),
    ("COc1ccc2c(c1)[nH]c1c(C)nccc12", "normalized growth", "1 (inactive)"),
    ("C[C@H]1C(=O)O[C@@H]2CCN3CC=C(COC(=O)[C@](C)(O)[C@]1(C)O)[C@H]23", "normalized growth", "0.991 (inactive)"),
    ("CCCCC/C=C\\C/C=C\\C/C=C\\C/C=C\\CCCC(=O)O", "normalized growth", "0.979 (inactive)"),
    ("c1ccc2c(c1)[nH]c1cnccc12", "normalized growth", "1 (inactive)"),
    ("COc1cc2ccc(=O)oc2cc1O", "normalized growth", "0.973 (inactive)"),
    ("CN(C)c1nc(N(C)C)nc(N(C)C)n1", "normalized growth", "0.986 (inactive)"),
    ("Cc1cc(C)nc(NS(=O)(=O)c2ccc(N)cc2)n1", "normalized growth", "0.978 (inactive)"),
    ("CCCC(=O)Nc1ncnc2c1ncn2C1O[C@@H]2COP(=O)(O)O[C@H]2[C@H]1OC(=O)CCC (some centres not stated)", "normalized growth", "0.97 (inactive)"),
]

[ask] Data request, read-out normalized growth, for Cc1nccc2c1[nH]c1ccccc12
[reply] 0.981 (inactive)

[ask] Data request, read-out normalized growth, for COc1cc2ccc(=O)oc2c(OC)c1OC
[reply] 0.979 (inactive)
